Test system: Plasmodium berghei
experiment summary: Screen against P. berghei liver stage (PbLuc), transformed with Luciferase, at 10uM
Assay type: functional, HepG2
test parameters: tested at 10 uM
About 8,600 (12%) of roughly 69,000 compounds showed an effect of 50% or more. The list comes from a sample in which strong results are over-represented; it also holds close analogues and randomly drawn compounds.
parameter measured: INHIBITION (%)
Report only the number, with the unit % understood.

Cn1cc(CN2CC[C@H]3C[C@H](c4nc(C5CC5)cs4)O[C@@H]3C2)cn1 ... 41.8
c1cc(CN2CC[C@H]3C[C@H](c4nc(C5CC5)cs4)O[C@@H]3C2)ccn1 ... 67.5

## Task Which INHIBITION is reported for this compound? CCCc1cc(C(=O)NC(C)c2ccccc2)n(C)n1 (stereo not given)
## Result 8.7

## Task Which INHIBITION is reported for this compound? `Cc1cc(CN2CC[C@H]3C[C@H](c4nc(C5CC5)cs4)O[C@@H]3C2)no1`
## Result 74.7

## Task Which INHIBITION is reported for this compound? `Cc1csc([C@@H]2C[C@@H]3CCN(C(=O)c4cc(C)on4)C[C@H]3O2)n1`
## Result 5.53

# credit: ChEMBL document CHEMBL4513216
